The entries below are paired with their reported % Inhibition.
# Tested on: Plasmodium falciparum
# procedure_summary: Confirmatory screen in NF54 pLDH assay, in single point, at 2uM, 72h
# Assay type: functional, Erythrocyte
# condition_info: timepoint 72 hour
Among all 4,800 compounds or so, about 410 (8.5%) showed an effect of 50% or more. For the sample, strong results were picked, then their nearest neighbours and some compounds at random.
measured_quantity: % Inhibition (%)

# molecule, unit_of_measure, observed_measurement
rows = [
    ("CCCC1(CNC(=O)Nc2nc(CS(C)(=O)=O)no2)CC1", "%", 6),
    ("CN1CCC(=O)Nc2cc(C(=O)NCCS(=O)(=O)NCC3CCC3)ccc21", "%", 6),
    ("COc1ccc(C(=O)Nc2nnc([C@H]3CC(=O)N(c4ccc(C)cc4)C3)o2)cc1OC", "%", -19),
    ("Cc1sc2nc(-c3ccccn3)nc(NCC(=O)N3CCC(O)CC3)c2c1-c1ccccc1", "%", 23),
    ("COc1ccc(C2CC(c3ccccc3)N(C(C)=O)c3ncnn32)cc1 (stereo not given)", "%", -7),
]

* * *

The entries below are paired with their reported % Inhibition.
# System: Plasmodium falciparum
# procedure_summary: Confirmatory screen in NF54 pLDH assay, in single point, at 2uM, 72h
# Assay type: functional, Erythrocyte
# condition_info: timepoint 72 hour
Out of some 4,800 compounds screened, about 410 (8.5%) showed an effect of 50% or more. Only a selection was taken, and strong results are over-represented in it overall.
measured_quantity: % Inhibition (%)

# molecule, observed_measurement
records = [
    ("Cc1c(C)n(C[C@H](O)Cn2c(C(F)(F)F)nc3ccccc32)c2c(Cl)cccc12", -15),
    ("Cc1cccc(CN(Cc2cccc(C)n2)C[C@H]2CCCCO2)n1", 90),
    ("Cc1c(C)n(C[C@@H](O)CNC2CCCC2)c2c(Cl)cccc12", -18),
    ("CO[C@@H](CNC(=O)c1nc2n(n1)-c1ccccc1S(=O)(=O)N2)c1ccccc1", 0),
    ("COc1ccc(-n2nc(C(=O)N3CCN(c4ncccn4)CC3)c(=O)cc2OC)cc1", -29),
    ("O=C(C1CN(c2ncc(C(F)(F)F)cc2Cl)C1)N1CCCC1", 11),
    ("Cc1cccc(CNC(=O)NC2CCOC2c2ccc(Cl)cc2)n1 (stereo not given)", -15),
    ("Cc1c(C)n(CC(O)CNC(C)c2ccccc2)c2c(Cl)cccc12 (stereo not given)", 73),
    ("O=S(=O)(c1ccc(F)c(Cl)c1)N1CC[C@H](Oc2ccncc2Cl)C1", 89),
    ("O=S(=O)(c1ccco1)N1CC[C@H](Oc2ccccc2)C1", 10),
]

* * *

# Tested on: Plasmodium falciparum
# procedure_summary: Confirmatory screen in NF54 pLDH assay, in single point, at 2uM, 72h
# Assay type: functional, Erythrocyte
# condition_info: timepoint 72 hour
The whole screen tested about 4,800 compounds, of which about 410 (8.5%) showed an effect of 50% or more. Only a selection was taken, and strong results are over-represented in it overall.

# mol_smiles, % Inhibition (%)
rows = [
    ("COc1ccc(CC(=O)N2CCN(c3cnn4cnnc4c3)CC2)cc1", 6),
    ("Cc1ccc(NC(=O)Nc2cccc(-c3ccc(N4CCN(C)CC4)nn3)c2)cc1C", 13),
    ("Cc1nc(CNS(=O)(=O)Cc2ccc(F)c(Cl)c2)sc1C", 3),
    ("COC(=O)c1ccccc1NC(=O)NCCn1nnc2cc(S(=O)(=O)N(C)C)ccc21", 32),
    ("O[C@@H](Cc1ccc2ccccc2n1)c1ccccc1", -3),
    ("c1ccc2c[n+](Cc3ccc4ccccc4n3)ccc2c1", 47),
    ("CCn1c(=O)c(N2CCC(C(=O)N3CCN(c4ccccc4F)CC3)CC2)nc2cccnc21", -9),
    ("CN(C(=O)CN(CCO)c1ccc(Br)cc1)C1CC1", 2),
    ("CCc1ccc(CN2CCN(Cc3cccc(Oc4ccccc4)c3)CC2)cc1", 8),
    ("CC[C@@H](Cc1ccccc1Br)C(=O)NCCC(N)=O", -6),
    ("O=C(CN1CCN(Cc2ccc(F)cc2)C1=O)NC1CCCCCCC1", 0),
]

Where these numbers come from: ChEMBL document CHEMBL4888484
